meta.source: PubChem BioAssay AID1626

- EXPERIMENT_DESCRIPTION: M. tuberculosis H37Rv growth inhibitors, H37Rv strain (AID 1626);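 also: bacteria incubated seven days before Alamar blue readout; 0% = bacteria only wells and 100% = bacteria with antibiotic wells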
- PROTOCOL_CONDITIONS: active compounds read high, concentration not given here
The campaign covered roughly 220,000 compounds. About 2,000 (0.91%) were called active. Roughly 2% stayed inconclusive and do not appear here. A selection follows. Results with a measured potency or affinity are listed apart.
PARAMETER_MEASURED: inhibition

Some compounds with known inhibition results, for comparison:
| COMPOUND | RECORDED_MEASUREMENT |
| --- | --- |
| c1ccc2c(NCC3CCCO3)nc(N3CCCCC3)nc2c1 (centres undefined) | 1.41% (inactive) |
| COc1ccc(-c2cn[nH]c2-c2ccc(OCc3ccc([N+](=O)[O-])cc3)cc2O)cc1 | 9.69% (inactive) |
| Clc1nc(NCc2ccco2)nc(N2CCCCC2)n1 | 5.51% (inactive) |
| COc1ccccc1NS(=O)(=O)c1cccc(C(=O)N/N=C(\C)c2ccc(-n3ccnc3)cc2)c1 | -7.54% (inactive) |
| COC(=O)c1ccc(CSc2nc3c(cnn3-c3ccc(C)cc3)c(=O)[nH]2)o1 | -0.23% (inactive) |
| O=C(Nc1nc2ccccc2[nH]1)c1ccc([N+](=O)[O-])cc1 | 75% (inactive) |

Here are 3 compounds. What values of inhibition were reported for them?
1. COC(=O)c1ccccc1NC(=O)c1cc(C2CC2)on1
2. COc1c(Cl)cc(Cl)cc1C(=O)Nc1ccc(NC(=O)c2cccs2)cc1
3. CN1CCN(C(=O)c2ccc(N3CCCC3=O)cc2)CC1

Output:
1. 4.32% (inactive)
2. 56.1% (inactive)
3. -13.8% (inactive)
